Consider the following compounds; for each one, report its IC90.
- System: M. tuberculosis H37Rv growth inhibition, glycerol-free medium
- assay.notes: Mycobacterium tuberculosis H37Rv growth inhibition, glycerol free medium, confirmatory screen (AID 504645);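 note: bacteria grown one week before the viability dye was added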
- test.settings: measured here: 90% growth inhibition

Entry CCC(Sc1ncnc2c1nnn2-c1ccc(F)cc1)C(=O)OC (stereo not given) : reported IC90 = ?
> 25 µM

Which value of IC90 has been reported for CC1CCCN(C(=O)C2CCC(CNc3c(N4CCCCC4)c(=O)c3=O)CC2)C1 (stereo not given) in the records?
> 25 µM

Fill in: IC90 of COc1ccc(-n2nnc3c(SCC(=O)OCc4ccccc4)ncnc32)cc1 is ___
> 25 µM

Which IC90 value belongs to O=C(c1ccc(CNc2c(N3CCCC3)c(=O)c2=O)cc1)N1CC=C(c2ccccc2)CC1 ?
6.76 µM

Please give the measured IC90 for this compound: COC(=O)C(C)Oc1ccc(-c2nccc(-c3ccccn3)n2)cc1 (stereo not given)
4.53 µM

// lookup IC90 for CCc1c(C)nc(SCC(=O)NC2CCCC2)[nH]c1=O
3.21 µM

Could you share which IC90 value was measured for O=C(c1ccc(CNc2c(N3CCOCC3)c(=O)c2=O)cc1)N1CC=C(c2ccccc2)CC1 ?
2.17 µM

Given O=C1C(Br)=Cc2cccc3cccc1c23 , state its recorded IC90.
1.13 µM

Name the reported IC90 value associated with the compound COC(=O)C1CC(=O)N(c2ccc(OCc3ccccc3Cl)cc2)C1 (stereo not given)
3.01 µM

Can you share its IC90? I mean this compound: CC1CCN(C(=O)c2ccc(CNc3c(N4CCCC4)c(=O)c3=O)cc2)CC1
6.69 µM

---

- Test system: M. tuberculosis H37Rv growth inhibition, glycerol-free medium
- assay.notes: Mycobacterium tuberculosis H37Rv growth inhibition, glycerol free medium, confirmatory screen (AID 504645);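 note: bacteria grown one week before the viability dye was added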
property.label: IC50

What value of IC50 has been recorded for this entry: COC(=O)C(C)Oc1ccc(-c2nccc(-c3ccccn3)n2)cc1 (stereo not given)
2.64 µM

Fill blank: measured IC50 of the compound COc1ccc(N2CCN(C(=O)c3ccc(CNc4c(N5CCOCC5)c(=O)c4=O)cc3)CC2)cc1 is ____.
3.41 µM

May I ask what IC50 has been recorded for Cc1ccc(NC(=O)C2C3/C=C\CCCCC32)cc1C (stereo not given) ?
1.72 µM

Given the compound COc1ccc(-n2nnc3c(SCC(=O)OCc4ccccc4)ncnc32)cc1 , what is its reported IC50?
2.81 µM

Can you share its IC50? I mean this compound: c1ccc(/N=C2\N=C(Nc3ccccn3)c3ccccc32)nc1
0.17 µM

Suppose we examine the compound O=C(CSc1nc2ccccc2c(=O)[nH]1)NC1CCCCC1 ; what IC50 value has been reported?
0.07 µM

GET /values?readout=IC50&item= CCOC(=O)CSc1ncnc2c1cnn2-c1ccc(C)cc1C
4.49 µM

What value of measured IC50 is listed for CC(C)CCNC(=O)CSc1nc2ccccc2c(=O)[nH]1 ?
2.31 µM

State the recorded IC50 for this entry: COC(=O)CCc1nc2c(C#N)c(-c3ccc(Cl)cc3)ccn2n1
2.54 µM

# lookup: IC50 of O=C(NCC(c1cccs1)N1CCOCC1)c1cc([N+](=O)[O-])cc([N+](=O)[O-])c1 (stereo not given)
0.41 µM

Values were extracted from PubChem BioAssay AID504645.
